molecular target: the molecule itself; experiment: dimer formation of the expressed construct (self-association), Western blot of transfected cells
REPORTED ENDPOINT: binding result

* FcTregV13 (other, TCP on the human IgG1 Fc-part: Treg289 in frame A, Treg084 in frame C, Treg088x C-terminal; also called Construct V13) DKTHTCPPCPAPELLGGPSVFLFPPKPKDTLMISRTPEVTCVVVDVSHEDPEVKFNWYVDGVEVHNAKTKPREEQYQSTYRVVSVLTVLHQDWLNGKEYKCKVSNKALPAPIEKTISKAKGTDFTLTISSLQPEDDELTKNQVSLTCLVKGFYPSDIAVEWESNGQPENNYKTTPPVLDSDGSFFLYSKLTVDKSRWQQGNVFSCSVMHEALHNHYTQKSLSLSPGKKTLYLQMNSLRAEDTAKH | binds
* FcTregV1 (other, Tregitope carrying polypeptide (TCP) built on the human IgG1 Fc-part: Treg289 in frame A, Treg084 in frame C, Treg134 C-terminal; also called Construct V1) DKTHTCPPCPAPELLGGPSVFLFPPKPKDTLMISRTPEVTCVVVDVSHEDPEVKFNWYVDGVEVHNAKTKPREEQYQSTYRVVSVLTVLHQDWLNGKEYKCKVSNKALPAPIEKTISKAKGTDFTLTISSLQPEDDELTKNQVSLTCLVKGFYPSDIAVEWESNGQPENNYKTTPPVLDSDGSFFLYSKLTVDKSRWQQGNVFSCSVMHEALHNHYTQKSLSLSPGKLNNFYPREAKVQWKVDNALQSGNS | binds
* FcTregV32 (other, TCP on the human IgG1 Fc-part: Treg009A in frame A, Treg084 in frame C, Treg009A in frame B, Treg088x C-terminal; also called Construct V32) DKTHTCPPCPAPELLGGPSVFLFPPKPKDTLMISRTPEVTCVVVDVSHEDPEVKFNWYVDGVEVHNAKTKPREEQYGGLVQPGGSLRLSCAASGFTFEYKCKVSNKALPAPIEKTISKAKGTDFTLTISSLQPEDRDELTKNQVSLTCLVKGFYPSDIAVEWESNGQPENNYKTTGGLVQPGGSLRLSCAASGFTFRWQQGNVFSCSVMHEALHNHYTQKSLSLSPGKKTLYLQMNSLRAEDTAKH | binds

Every entry's value here was drawn from patent US20230159610A1.
